# MEASURED_ON: Programmed cell death protein 1/Programmed cell death 1 ligand 1 (Homo sapiens, UniProt Q15116+Q9NZQ7)
# Sequence (Q15116 whole entry): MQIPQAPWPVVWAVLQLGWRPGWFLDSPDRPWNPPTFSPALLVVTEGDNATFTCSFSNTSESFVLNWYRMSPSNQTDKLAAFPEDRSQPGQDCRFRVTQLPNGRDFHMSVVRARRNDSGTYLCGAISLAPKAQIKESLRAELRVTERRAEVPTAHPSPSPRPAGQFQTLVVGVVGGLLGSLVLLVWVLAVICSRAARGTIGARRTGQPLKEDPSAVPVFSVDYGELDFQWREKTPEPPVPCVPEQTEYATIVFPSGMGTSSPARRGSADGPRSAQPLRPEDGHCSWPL
# Sequence (Q9NZQ7 whole entry): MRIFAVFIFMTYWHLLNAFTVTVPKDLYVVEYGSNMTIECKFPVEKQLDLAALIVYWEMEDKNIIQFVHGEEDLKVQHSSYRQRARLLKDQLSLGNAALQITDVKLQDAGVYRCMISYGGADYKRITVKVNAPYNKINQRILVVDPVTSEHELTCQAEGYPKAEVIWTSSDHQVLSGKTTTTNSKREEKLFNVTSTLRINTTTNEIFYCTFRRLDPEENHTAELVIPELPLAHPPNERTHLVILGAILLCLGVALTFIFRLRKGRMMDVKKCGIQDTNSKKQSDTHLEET
# TEST_DESCRIPTION: Inhibition of human PD1/PDL1 protein-protein interaction after 15 mins by HTRF assay
# Type: protein-complex assay
PROPERTY: pIC50
Numbers only, as −log10 of the molar value.

{"columns": ["MOLECULAR_STRING", "pIC50"],
 "data": [
  ["CS(=O)(=O)NCCNCc1cc(C(=O)Nc2cccc(-c3ccc4c(c3)OCCO4)c2C#N)c2nncn2c1", 6.01],
  ["Cc1c(NC(=O)c2cc(CNCCNS(C)(=O)=O)cn3cnnc23)cccc1-c1ccc2c(c1)OCCO2", 6.01],
  ["Cc1c(NC(=O)c2cc(CN(C)CCO)cn3cnnc23)cccc1-c1ccc2c(c1)OCCO2", 6.62]
]}

Continue with the next compound.
## Input Entry "Cc1c(NC(=O)c2cc(CN[C@H]3CC[C@H](O)CC3)cn3cnnc23)cccc1-c1ccccc1" has what pIC50?
## Output 6.01

====

# MEASURED_ON: Programmed cell death protein 1/Programmed cell death 1 ligand 1 (Homo sapiens, UniProt Q15116+Q9NZQ7)
# TEST_DESCRIPTION: Inhibition of human PD1/PDL1 protein-protein interaction after 15 mins by HTRF assay
Provide the reported IC50 of each item.

In the examples that follow, each entry is paired with its recorded IC50.
{"columns": ["MOLECULAR_STRING", "IC50"],
 "data": [
  ["Cc1c(NC(=O)c2cc(CNCCO)cn3c(C)nnc23)cccc1-c1ccccc1", "> 10 µM"],
  ["Cc1c(NC(=O)c2ccc(CN(C)CCO)n3cnnc23)cccc1-c1ccccc1", "> 10 µM"]
]}

Now look at this one.
## Input Reported IC50, molecule "Cc1c(NC(=O)c2ccc(CNCCO)n3cnnc23)cccc1-c1ccccc1" : ____
## Output > 10 µM
